Test: NCI Yeast Anticancer Drug Screen. Data for the rad50 strain (AID 155);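 note: 0% = growth of vehicle-only cultures of the same strain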
Conditions: S. cerevisiae rad50 strain growth inhibition; at 50.0 µM; hits give high values
The panel holds about 79,000 compounds, 15% with a hit somewhere; the sample as a whole holds those more often.
reported_metric: growth inhibition (%)

compound=CO/C(Cc1cc(O)cc(O)c1)=N\N unit_annotation=% reported=-0.45
compound=NC1CC1 unit_annotation=% reported=-8.4
compound=c1ccc2sc(-c3nc4ccccc4s3)nc2c1 unit_annotation=% reported=26.3
compound=COc1ccc(N=C(N)N=C(N)N)cc1 unit_annotation=% reported=-3.3
compound=O=c1c2ccccc2nc(-c2ccccc2)n1/N=C/c1ccccc1O unit_annotation=% reported=1.15
compound=CC(=O)NC(c1ccc(Cl)cc1)(c1ccc(Cl)cc1)C(Cl)(Cl)Cl unit_annotation=% reported=-18.6
compound=O=[N+]([O-])c1ccc(CCCn2cnc3c(Cl)ncnc32)c([N+](=O)[O-])c1 unit_annotation=% reported=15
compound=COc1onc(C)c1CC(=O)O unit_annotation=% reported=2.7
compound=COC(=O)CCC(=O)Nc1ccc(Cl)cc1C unit_annotation=% reported=-22.8
compound=OCc1c(CO)c(C(F)(F)F)n2c1CCC2 unit_annotation=% reported=9.9
compound=C/C(=N\O)C(=O)c1cccc([N+](=O)[O-])c1 unit_annotation=% reported=12
compound="CCOC(=O)C(C)CC(C)C(=O)OCC (stereo unspecified)" unit_annotation=% reported=20.6
compound=CCc1ccc(COC(=O)NC)nc1 unit_annotation=% reported=38
compound="BrC1=NOC2c3cccc4cccc(c34)C12 (stereo unspecified)" unit_annotation=% reported=2.4
compound=FC(F)/C=C\c1ccccc1 unit_annotation=% reported=8.85
compound="COCCCNC(=O)C1C(=O)N(CCCOC)C(=O)/C1=N\\N (stereo unspecified)" unit_annotation=% reported=5.15
compound=COc1ccc(/C=C2\N=C(c3ccccc3)OC2=O)c(OC)c1C unit_annotation=% reported=-6.1
compound="ONC1=Nc2cc(Cl)ccc2C(=S)N2CSCC12 (stereo unspecified)" unit_annotation=% reported=1.55
compound=CC(=O)[CH-]C(=O)Nc1ccccc1.CC(=O)[CH-]C(=O)Nc1ccccc1.CC[O-].CC[O-].[Ti+4] unit_annotation=% reported=-16.4
compound="CC(=O)NCC1OC2COC(c3ccccc3)OC2C2N=C(c3ccccc3)OC12 (stereo unspecified)" unit_annotation=% reported=-9.45
compound=CN(C)Cc1cc(Cl)c(O)c(CN(C)C)c1 unit_annotation=% reported=-17.6
compound="CC(=O)C1C(=O)C(=O)N(c2ccc([N+](=O)[O-])cc2)C1=O (stereo unspecified)" unit_annotation=% reported=-26.9
compound="CC1(C)CC(=O)C2=C(C1)NC(=S)C(C#N)C2c1ccccc1 (stereo unspecified)" unit_annotation=% reported=10.2
compound=COc1ccc(C(=O)/C=C/c2ccc(OCCCCCCCCCCOc3ccc(/C=C/C(=O)c4ccc(OC)cc4)cc3)cc2)cc1 unit_annotation=% reported=-14.2
compound=CC(=O)Nc1cc2c(cc1C=O)OCO2 unit_annotation=% reported=19.6
compound=Nc1c(I)cc([N+](=O)[O-])cc1I unit_annotation=% reported=32.8

###

Experiment: NCI Yeast Anticancer Drug Screen. Data for the cln2 rad14 strain (AID 165);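 note: 0% = growth equal to vehicle treated cultures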
Conditions: S. cerevisiae cln2 rad14 strain, at 50.0 µM, hits give high values
This is part of a sample that, as a whole, favours compounds with a hit. Of some 79,000 tested, about 15% had one in any assay.
growth inhibition for assorted compounds
reported_metric: growth inhibition (%)

compound="CCCCCC/C=C/CCCCCCCc1cccc(OC)c1 (tested in a mixture with another compound)" reported_metric="growth inhibition" reported=-14.7
compound="O=C(CC(c1ccccc1)C1CCCC1=O)c1ccccc1 (stereo unspecified)" reported_metric="growth inhibition" reported=-21.3
compound=O=C([O-])C[n+]1ccccc1 reported_metric="growth inhibition" reported=-35.9
compound=COc1ccc(C)cc1NS(=O)(=O)c1ccccc1 reported_metric="growth inhibition" reported=-12.5
compound=Cc1cc(C)n(-c2ccnc(-n3nc(C)cc3C)n2)n1 reported_metric="growth inhibition" reported=7.7
compound="CC[N+](C)(CC)CCOC(=O)C(C1=CCCCC1)C1(O)CCCCC1 (stereo unspecified)" reported_metric="growth inhibition" reported=-48.9
compound="COc1ccc(C(=O)C(C)CN2CCOCC2)cc1 (stereo unspecified)" reported_metric="growth inhibition" reported=32.6
compound="CCCCS(=O)(=O)CCC(N)P(=O)(O)O (stereo unspecified)" reported_metric="growth inhibition" reported=-33.8
compound=CCCCn1cnc2ccc3nc(-c4ccccc4)c(-c4ccccc4)nc3c2c1=O reported_metric="growth inhibition" reported=4.1
compound="COc1ccccc1C(O)c1ccccc1 (stereo unspecified)" reported_metric="growth inhibition" reported=11.4
compound=Cc1cc(N(CCC#N)CCC#N)ccc1/C(N=Nc1ccc(Cl)cc1)=N\NC(=O)c1ccccc1 reported_metric="growth inhibition" reported=-10.2
